Tgt: Serine/threonine-protein kinase 25 (Homo sapiens, UniProt O00506)
Sequence (O00506 whole entry, the tested form may be a part): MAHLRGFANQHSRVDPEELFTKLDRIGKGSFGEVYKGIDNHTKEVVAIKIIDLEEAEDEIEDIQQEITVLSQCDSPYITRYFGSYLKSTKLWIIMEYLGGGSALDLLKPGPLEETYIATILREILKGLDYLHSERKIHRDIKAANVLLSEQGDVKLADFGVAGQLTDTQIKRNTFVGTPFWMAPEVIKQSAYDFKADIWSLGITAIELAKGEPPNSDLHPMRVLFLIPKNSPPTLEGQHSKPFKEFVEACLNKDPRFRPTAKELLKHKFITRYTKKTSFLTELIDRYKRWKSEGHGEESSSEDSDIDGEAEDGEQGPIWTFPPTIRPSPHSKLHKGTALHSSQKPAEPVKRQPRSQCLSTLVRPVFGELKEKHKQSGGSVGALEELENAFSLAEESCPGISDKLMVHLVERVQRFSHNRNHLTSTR
Protocol Description: Inhibition of recombinant human STK25 (1 to 308 residues) using RLGRDKYKTLRQI as substrate incubated for 40 mins in presence of [gamma33P]ATP by radiometric scintillation counting analysis

>  <Molecular String>
CN(C)c1ccc(C(=O)Nc2cccc(NC(=O)COc3ccc4c(=O)ccoc4c3)c2)cc1

>  <IC50>
> 10 µM

$$$$

###

Tgt: Discoidin domain-containing receptor 2 (Homo sapiens, UniProt Q16832)
Sequence (Q16832 whole entry): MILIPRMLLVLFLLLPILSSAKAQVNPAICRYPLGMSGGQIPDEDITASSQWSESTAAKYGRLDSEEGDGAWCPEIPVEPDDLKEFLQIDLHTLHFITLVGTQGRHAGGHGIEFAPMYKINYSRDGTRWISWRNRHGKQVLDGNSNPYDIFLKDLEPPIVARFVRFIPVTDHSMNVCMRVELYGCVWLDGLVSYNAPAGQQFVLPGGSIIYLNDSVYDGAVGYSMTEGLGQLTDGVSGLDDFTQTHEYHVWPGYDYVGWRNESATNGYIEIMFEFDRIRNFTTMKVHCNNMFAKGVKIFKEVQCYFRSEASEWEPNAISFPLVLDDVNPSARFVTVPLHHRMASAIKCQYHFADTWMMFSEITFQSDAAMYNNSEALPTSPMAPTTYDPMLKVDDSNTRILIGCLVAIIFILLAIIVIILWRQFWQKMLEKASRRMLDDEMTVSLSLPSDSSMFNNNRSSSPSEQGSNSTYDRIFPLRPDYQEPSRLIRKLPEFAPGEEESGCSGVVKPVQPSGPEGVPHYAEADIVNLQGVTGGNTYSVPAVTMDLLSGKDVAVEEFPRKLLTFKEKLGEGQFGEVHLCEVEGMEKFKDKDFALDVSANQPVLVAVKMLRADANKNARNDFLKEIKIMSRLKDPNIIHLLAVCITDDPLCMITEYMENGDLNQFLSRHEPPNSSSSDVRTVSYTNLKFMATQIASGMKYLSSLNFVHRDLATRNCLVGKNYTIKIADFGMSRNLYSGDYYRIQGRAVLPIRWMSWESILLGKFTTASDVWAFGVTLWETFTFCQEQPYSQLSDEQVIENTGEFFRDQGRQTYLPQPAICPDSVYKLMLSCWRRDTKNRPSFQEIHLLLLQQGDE
Protocol Description: Inhibition of recombinant human DDR2 S642A mutant (467 to end residues) using KKSRGDYMTMQIG as substrate after 40 mins in presence of [gamma-33ATP] by radiometric scintillation counting analysis

>  <Molecular String>
CN(C)c1ccc(C(=O)Nc2cccc(NC(=O)COc3ccc4c(=O)ccoc4c3)c2)cc1

>  <IC50>
> 10 µM

$$$$
